Tested on: NCI/ADR-RES ovarian
testSummary: NCI-60 one-dose screen, 48 h
testParameters: 10 µM unless noted
Compounds without any hit were thinned out: in the full panel of roughly 83,000, 20% have a hit. The source made the active and inactive calls. How the source made its calls: active means growth percent below 10; inactive means the rest.
Write down one outcome, taken from YES (active), NO (inactive)

Dear all, I need the recorded test outcome for "CC(C)CCSC1=CC(=O)c2ccccc2C1=O" , thank you.
NO

Dear all, I need the recorded test outcome for "COc1cc(NCc2ccccc2O)c2ncccc2c1" , thank you.
NO

Dear all, I need the recorded test outcome for "CCCC[C@@H](C=O)NC(=O)[C@H](CC(C)C)NC(=O)[C@H](CC(C)C)NC(=O)OCc1ccccc1" , thank you.
YES

Dear all, I need the recorded test outcome for "COC(=O)[C@H](CC(C)C)NC(=O)NC(=O)NC(=O)CI" , thank you.
NO

---
Dear all, I need the recorded test outcome for "CC(C)=CC/C=C(/C)[C@H]1CC[C@]2(C)[C@@H]1CC[C@@H]1[C@@]3(C)CCC(=O)NC(C)(C)[C@@H]3CC[C@]12C" , thank you.
NO

====

System: A549/ATCC NSCLC
testSummary: NCI-60 one-dose screen, 48 h
testParameters: 10 µM unless noted
This is part of a sample that, as a whole, favours compounds with a hit. Of some 83,000 tested, about 20% had one in any assay. The source made the active and inactive calls. Rule for the calls: active = growth percent below 10; inactive = the rest.
Write down one outcome, taken from 1 for active, 0 for inactive

Answered cases to consult:
Dear all, I need the recorded test outcome for "CCOc1ccc(/C=C(\C#N)c2cc3ccccc3[nH]2)cc1" , thank you.
0

Dear all, I need the recorded test outcome for "COc1ccc(C(=O)c2nccc3cc(OC)c(OC)cc23)cc1OC" , thank you.
0

Dear all, I need the recorded test outcome for "CCCCCCCCCCCCCC[n+]1cccc(C(N)=O)c1" , thank you.
0

Dear all, I need the recorded test outcome for "CCCCCCSc1ncnc2nc[nH]c12" , thank you.
0

Dear all, I need the recorded test outcome for "O=[N+]([O-])c1cc([N+](=O)[O-])c(C(F)(F)F)cc1NN=C(c1ccc(O)cc1)c1ccc(O)cc1" , thank you.
1

Dear all, I need the recorded test outcome for CCCCCCCCCN(CCCCCCCCC)C(C)C(=O)c1ccc2cc(Br)c3ccccc3c2c1 (stereo not drawn) , thank you.
0

Dear all, I need the recorded test outcome for "O=C(Nc1cccc2ccccc12)c1cc2ccccc2cc1O" , thank you.
0

Dear all, I need the recorded test outcome for "COc1ncc(-c2ccc3nccc(C#CCCCCC(=O)NO)c3c2)cc1NS(=O)(=O)c1ccc(F)cc1F" , thank you.
1

---
Dear all, I need the recorded test outcome for "CCOC(=O)c1nc2c3ccccc3ccn2c1C(=O)OC" , thank you.
0

Dear all, I need the recorded test outcome for "CC[C@@H]1NC(=O)[C@@H]2CCCCN2C(=O)[C@@H]2CCCN2C(=O)[C@@H](NC(=O)[C@H](Cc2cc(F)cc(F)c2)NC(=O)Nc2ccc(C3CC3)cc2F)[C@H](C)OC(=O)[C@@H]2C[C@@H](C)CN2C1=O" , thank you.
0

Dear all, I need the recorded test outcome for "Cc1ccc(NC(=O)N[C@@H](Cc2cc(F)cc(F)c2)C(=O)N[C@@H]2C(=O)N3CCC[C@H]3C(=O)N3CCOC[C@H]3C(=O)N[C@@H](C)C(=O)N3C[C@H](C)C[C@H]3C(=O)O[C@H]2C)cc1" , thank you.
0

Dear all, I need the recorded test outcome for C=C(C)C1CCC2(C(=O)O)CCC3(C)C(CCC4C5(C)CCC(OC(=O)NCc6ccccc6)C(C)(C)C5CCC43C)C12 (stereo not drawn) , thank you.
0

Dear all, I need the recorded test outcome for "CCn1cc(-c2[nH]c(=S)ncc2-c2ccc(Cl)cc2)c(-c2ccc(Br)cc2)n1" , thank you.
0

Dear all, I need the recorded test outcome for "CC[C@]12C=CCN3CC[C@@]4(c5ccc(OC)cc5N(C)[C@H]4[C@@](O)(C(=O)OC)[C@@H]1OC(=O)CCC(=O)N[C@H](Cc1c[nH]c4ccccc14)C(=O)OC)[C@@H]32" , thank you.
1

Dear all, I need the recorded test outcome for "Cc1cccc([N+](=O)[O-])c1I" , thank you.
0

Dear all, I need the recorded test outcome for O=C1CC(c2ccccc2)Cc2nc3ccc(Br)cc3cc21 (stereo not drawn) , thank you.
0

Dear all, I need the recorded test outcome for "Nn1c(Nc2ccc(S(=O)(=O)Nc3ncccn3)cc2)nnc(/C=C/c2c(O)ccc3ccccc23)c1=O" , thank you.
0

Dear all, I need the recorded test outcome for "COc1ccc(/C=C/C(=C/c2c(O)[nH]c3cc(Br)ccc23)N=O)cc1" , thank you.
0
